Property: normalized growth; scope: individual compounds
- MEASUREMENT_NOTES: chemical genetic growth profiling, strain panel (AID 1159580);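 further: tested at 20 µM; growth read once vehicle control cultures reached saturation at 30 °C; 1 = growth at the plate median or of vehicle wells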
- PROTOCOL_CONDITIONS: S. cerevisiae deletion strains, growth OD, locus YER111C, strain swi4, hits give low values
In all, about 5,500 compounds went through this assay and about 2,000 (36%) were called active. Not shown: some 18% with an inconclusive outcome. The list shows a part of the results.

{"COMPOUND": "ClC(Cl)=C(c1ccc(Cl)cc1)c1ccc(Cl)cc1", "normalized growth": 0.991}
{"COMPOUND": "C[n+]1cc2c3c(ccc2c2ccc4cc5c(cc4c21)OCO5)OCO3", "normalized growth": 0.847}
{"COMPOUND": "CN1CCN2c3ccccc3Cc3ccccc3C2C1 (stereo unspecified)", "normalized growth": 0.993}
{"COMPOUND": "COc1ccc(C(=O)/C=C/c2ccccc2)cc1", "normalized growth": 0.968}
{"COMPOUND": "COc1cc2c(cc1OC)-c1cc3ccc(OC)c(OC)c3c[n+]1CC2", "normalized growth": 0.97}
{"COMPOUND": "COc1cc([C@@H]2c3cc4c(cc3C(O[C@@H]3O[C@@H]5CO[C@@H](c6cccs6)OC5[C@H](O)[C@H]3O)C3COC(=O)[C@@H]32)OCO4)cc(OC)c1O (stereo partly specified)", "normalized growth": 0.98}
{"COMPOUND": "S=c1ccss1", "normalized growth": 1.01}
{"COMPOUND": "COc1cc([C@@H]2c3cc4c(cc3[C@H](OC(C)=O)[C@H]3COC(=O)[C@H]23)OCO4)cc(OC)c1OC", "normalized growth": 1.01}
{"COMPOUND": "N[C@H](CO)Cc1ccccc1", "normalized growth": 1.02}
{"COMPOUND": "O=C(/C=C/c1ccccc1)c1ccc(O)cc1", "normalized growth": 0.124}
{"COMPOUND": "COc1cccc2c1cc([N+](=O)[O-])c1c(C(=O)O)cc3c(c12)OCO3", "normalized growth": 1.03}

* * *

- MEASUREMENT_NOTES: chemical genetic growth profiling, strain panel (AID 1159580);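 further: tested at 20 µM; growth read once vehicle control cultures reached saturation at 30 °C; 1 = growth at the plate median or of vehicle wells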
- PROTOCOL_CONDITIONS: S. cerevisiae deletion strains, growth OD, locus YCL069W, strain vba3, hits give low values
The whole screen tested about 5,500 compounds, of which about 2,000 (36%) were called active. About 18% were inconclusive and are not listed. The list shows a part of the results.
normalized growth vs 1: less than gives TRUE; not less than gives FALSE.

{"COMPOUND": "COC(=O)C1=C(C)NC(C)=C(C(=O)OCC(C)C)C1c1ccccc1[N+](=O)[O-] (stereo not given)", "ANSWER_LABEL": "TRUE"}
{"COMPOUND": "CN(C)CC/C=C1/c2ccccc2COc2ccccc21", "ANSWER_LABEL": "FALSE"}
{"COMPOUND": "C[n+]1cc2c3c(ccc2c2ccc4cc5c(cc4c21)OCO5)OCO3", "ANSWER_LABEL": "TRUE"}
{"COMPOUND": "CC1=CCc2c(cc3oc(C)cc(=O)c3c2O)OC1", "ANSWER_LABEL": "TRUE"}

* * *

- MEASUREMENT_NOTES: chemical genetic growth profiling, strain panel (AID 1159580);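 further: tested at 20 µM; growth read once vehicle control cultures reached saturation at 30 °C; 1 = growth at the plate median or of vehicle wells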
- PROTOCOL_CONDITIONS: S. cerevisiae deletion strains, growth OD, locus YEL061C, strain CIN8
The whole screen tested about 5,500 compounds, of which about 2,000 (36%) were called active. Not shown: some 18% with an inconclusive outcome. No stated cut-off is given here; in the data, active means normalized growth mostly below about 0.91 (no sharp cut-off); inconclusive means no clear call, values can overlap the other calls; inactive means mostly above about 0.92. Some of the results follow.
Labels: active, inactive

{"COMPOUND": "NS(=O)(=O)c1cc2c(cc1C(F)(F)F)NCNS2(=O)=O", "ANSWER_LABEL": "inactive"}
{"COMPOUND": "O=C(N/N=C\\c1ccccc1Cl)c1cccnc1", "ANSWER_LABEL": "inactive"}
{"COMPOUND": "CC(=O)C1COc2ccc(C)cc2C1=O (stereo not drawn)", "ANSWER_LABEL": "inactive"}
{"COMPOUND": "COC(=O)c1ccc(Cl)cc1N(Cc1ccccc1)S(C)(=O)=O", "ANSWER_LABEL": "inactive"}
{"COMPOUND": "COc1c(O)cccc1O", "ANSWER_LABEL": "inactive"}
{"COMPOUND": "CCC1C2CC3C4N(C)c5ccccc5C45CC(C2C5OC(C)=O)N3C1OC(C)=O (stereo not drawn)", "ANSWER_LABEL": "inactive"}
{"COMPOUND": "CC1=CCc2c(cc3oc(C)cc(=O)c3c2O)OC1", "ANSWER_LABEL": "inactive"}
{"COMPOUND": "CCn1cc(C(=O)O)c(=O)c2cc(F)c(N3CCNCC3)cc21", "ANSWER_LABEL": "inactive"}
{"COMPOUND": "COc1ccc(-c2coc3cc(OC)cc(O)c3c2=O)cc1", "ANSWER_LABEL": "inactive"}
{"COMPOUND": "N#CC1COc2ccccc2O1 (stereo not drawn)", "ANSWER_LABEL": "inactive"}
{"COMPOUND": "O=C(N/N=C\\c1ccccc1Cl)N/N=C\\c1ccccc1Cl", "ANSWER_LABEL": "active"}
{"COMPOUND": "COc1cc(O)c2c(=O)c(-c3ccc(O)cc3)coc2c1", "ANSWER_LABEL": "inactive"}
{"COMPOUND": "N[C@@H]1CONC1=O", "ANSWER_LABEL": "inactive"}

* * *

- MEASUREMENT_NOTES: chemical genetic growth profiling, strain panel (AID 1159580);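 further: tested at 20 µM; growth read once vehicle control cultures reached saturation at 30 °C; 1 = growth at the plate median or of vehicle wells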
- PROTOCOL_CONDITIONS: S. cerevisiae deletion strains, growth OD, locus YNL197C, strain WHI3, hits give low values
About 2,000 (36%) of roughly 5,500 compounds were called active. Roughly 18% stayed inconclusive and do not appear here. The list shows a part of the results.
Property: normalized growth; scope: individual compounds
MEASURED_PROPERTY: normalized growth

{"COMPOUND": "NCCNC(=O)Cc1ccc(NC(=O)Cc2ccc(Nc3ncnc4c3ncn4[C@@H]3O[C@H](CO)[C@H](O)C3O)cc2)cc1 (stereo not given in full)", "MEASURED_PROPERTY": "normalized growth", "OBSERVED_RESULT": 1.02}
{"COMPOUND": "N=c1ccn2c(n1)OC1C(O)[C@@H](CO)O[C@H]12 (stereo not given in full)", "MEASURED_PROPERTY": "normalized growth", "OBSERVED_RESULT": 1}
{"COMPOUND": "CNCCC=C1c2ccccc2CCc2ccccc21", "MEASURED_PROPERTY": "normalized growth", "OBSERVED_RESULT": 1.01}
{"COMPOUND": "CC1(NCC(O)COc2cccc3[nH]ccc23)CCC(C(C)(C)NC(=O)CBr)CC1 (stereo not given)", "MEASURED_PROPERTY": "normalized growth", "OBSERVED_RESULT": 1.02}
{"COMPOUND": "CN1CC(O)C(O)C(O)C1CO (stereo not given)", "MEASURED_PROPERTY": "normalized growth", "OBSERVED_RESULT": 1}
{"COMPOUND": "O=c1c(-c2ccc(O)cc2)coc2cc(O)cc(O)c12", "MEASURED_PROPERTY": "normalized growth", "OBSERVED_RESULT": 1.01}
{"COMPOUND": "N#CC(C#N)=Cc1ccc([N+](=O)[O-])c(O)c1", "MEASURED_PROPERTY": "normalized growth", "OBSERVED_RESULT": 0.955}
{"COMPOUND": "Nc1ccn([C@H]2CC[C@@H](CO)O2)c(=O)n1", "MEASURED_PROPERTY": "normalized growth", "OBSERVED_RESULT": 1}
{"COMPOUND": "O=c1c2ccccc2[se]n1-c1ccccc1", "MEASURED_PROPERTY": "normalized growth", "OBSERVED_RESULT": 0.924}
{"COMPOUND": "CC(=O)Oc1cc(C(C)C)c(OCCN(C)C)cc1C", "MEASURED_PROPERTY": "normalized growth", "OBSERVED_RESULT": 1.01}
{"COMPOUND": "C[C@@H]1C(=O)NC2=Nc3cccc(Cl)c3CN21", "MEASURED_PROPERTY": "normalized growth", "OBSERVED_RESULT": 1}
{"COMPOUND": "NCCCCNS(=O)(=O)c1cccc2c(Cl)cccc12", "MEASURED_PROPERTY": "normalized growth", "OBSERVED_RESULT": 1}
{"COMPOUND": "Nc1ccc(N2C(=O)c3ccccc3C2=O)c(Cl)c1", "MEASURED_PROPERTY": "normalized growth", "OBSERVED_RESULT": 0.935}
{"COMPOUND": "CC(N)Cc1c[nH]c2ccc(OCc3cccs3)cc12 (stereo not given)", "MEASURED_PROPERTY": "normalized growth", "OBSERVED_RESULT": 1.01}
{"COMPOUND": "CN1CCC23CCCC[C@H]2C1Cc1ccc(O)cc13 (stereo not given in full)", "MEASURED_PROPERTY": "normalized growth", "OBSERVED_RESULT": 1.05}
{"COMPOUND": "CN(C)CCC=C1c2ccccc2C=Cc2ccccc21", "MEASURED_PROPERTY": "normalized growth", "OBSERVED_RESULT": 1.02}
{"COMPOUND": "O=c1[nH]c(=O)n([C@H]2C[C@H](O)[C@@H](CO)O2)cc1/C=C/Br", "MEASURED_PROPERTY": "normalized growth", "OBSERVED_RESULT": 0.936}
{"COMPOUND": "CN1CCN(C2Cc3ccccc3Sc3ccc(Cl)cc32)CC1 (stereo not given)", "MEASURED_PROPERTY": "normalized growth", "OBSERVED_RESULT": 0.989}
{"COMPOUND": "CC(C)C[C@H](NC(=O)C1OC1C(=O)O)C(=O)NCCCCN=C(N)N (stereo not given in full)", "MEASURED_PROPERTY": "normalized growth", "OBSERVED_RESULT": 0.971}
{"COMPOUND": "CNCCc1c[nH]c2ccc(O)cc12", "MEASURED_PROPERTY": "normalized growth", "OBSERVED_RESULT": 1.02}
{"COMPOUND": "CN(C)CC/C=C1\\c2ccccc2COc2ccccc21", "MEASURED_PROPERTY": "normalized growth", "OBSERVED_RESULT": 1}
{"COMPOUND": "CCNC(=O)[C@H]1O[C@@H](n2cnc3c(N)nc(NCCc4ccc(CCC(=O)O)cc4)nc32)C(O)[C@H]1O (stereo not given in full)", "MEASURED_PROPERTY": "normalized growth", "OBSERVED_RESULT": 0.981}
{"COMPOUND": "Cc1cc(NC(=O)Nc2ccc3c(ccn3C)c2)sn1", "MEASURED_PROPERTY": "normalized growth", "OBSERVED_RESULT": 0.983}
{"COMPOUND": "CCCCC1C(=O)N(c2ccccc2)N(c2ccccc2)C1=O", "MEASURED_PROPERTY": "normalized growth", "OBSERVED_RESULT": 0.976}
{"COMPOUND": "NCCc1ccc(O)cc1", "MEASURED_PROPERTY": "normalized growth", "OBSERVED_RESULT": 1}
